Data origin, for the record: the supplement of paper PMC6089552

system: A673/TR/shEF; assay: cell viability (LOESS-normalised, relative to median of negative controls) (log2 ratio); higher = more viable cells (less compound effect), active = hit call of the paper (over 3 MAD below the median); settings: 2.5 µM; library screen: screen1; EWS-FLI1 expression: low (doxycycline-induced shRNA knockdown); treatment time: 72 h
About 300 (9.4%) of roughly 3,200 compounds showed activity. This is one part of a sample in which actives are shown more often than they occur.
Answer each item with its documented cell viability (log2).
Numbers only.

Consider the following illustrative entries.
C=C(c1ccccc1)c1cc(O)c(OC)cc1O: 0.0603
COC(=O)c1c(OC)cc2c(c1C)Oc1c(Cl)c(OC(C)=O)c(Cl)c(C)c1C(=O)O2: 0.152

Return reported cell viability (log2) values for all items listed beneath this line.
1. O=C1C=C(O)c2ccccc2C1=O
2. COc1cc(CN2CCN(Cc3cccc(OC)c3OC)CC2)c([N+](=O)[O-])cc1OC
3. Cc1cc2ncc(-c3ccccc3)nc2cc1C
4. O=C(Nc1ccccn1)c1cc(-c2ccccc2)nc2ccccc12
5. C=C(C)/C=C1/C=CC(=O)C(C)=C1

Response line:
1: 0.181; 2: -0.0278; 3: 0.141; 4: -0.0311; 5: 0.158

###

system: A673/TR/shEF; experiment: cell viability (LOESS-normalised, relative to median of negative controls) (log2 ratio); higher = more viable cells (less compound effect), active = hit call of the paper (over 3 MAD below the median); conditions: 0.25 µM; library screen: screen1; EWS-FLI1 expression: high (no doxycycline); treatment time: 72 h
Out of some 3,200 compounds screened, about 300 (9.4%) showed activity. Shown is part of a subset that was picked to be rich in actives.
Answer each item with its documented cell viability (log2).
Answers are plain numbers.

COC(=O)C[C@H]1C(C)(C)C(=O)[C@@H]2C[C@@]3(O)C4=CC(=O)O[C@@H](c5ccoc5)[C@]4(C)CCC3[C@@]1(C)C2=O (stereo not given in full): 0.0813
COc1ccccc1/C=C/c1nc(O)c([N+](=O)[O-])c(=O)[nH]1: 0.123
CCC/C=C/C=C/C1CC(O)C(O)C(=O)C1C=O (stereo not given): -0.0508

Return reported cell viability (log2) values for all items listed beneath this line.
1. CC(C)=CC1C(CO)C1(C)C (stereo not given)
2. C[C@]12CC[C@@H]3c4ccc(O)cc4CC[C@H]3[C@@H]1CC[C@@H]2O
3. CC(=O)O[C@H]1C[C@@]2(C)[C@H](c3ccoc3)OC(=O)[C@H]3O[C@]32[C@@]2(C)C1[C@]1(C)C(C[C@H]2OC(C)=O)C(C)(C)[C@H](OC(C)=O)C[C@@H]1OC(C)=O (stereo not given in full)
4. COc1ccccc1C=CC(=O)O
5. C[C@]12CCC3c4ccc(OS(=O)(=O)O)cc4CCC3C1CC[C@H]2O (stereo not given in full)

Response line:
[0.105, 0.122, -0.00983, 0.0113, 0.0646]

Return reported cell viability (log2) values for all items listed beneath this line.
1. Cc1cc(O)c2c(c1)Cc1cccc(O)c1C2=O
2. COc1nc(N/N=C/c2ccccc2F)nc(N2CCCCC2)n1

Response line:
[0.119, 0.0265]

###

tested on: A673/TR/shEF; assay: cell viability (LOESS-normalised, relative to median of negative controls) (log2 ratio); higher = more viable cells (less compound effect), active = hit call of the paper (over 3 MAD below the median); conditions: 0.25 µM; library screen: screen1; EWS-FLI1 expression: low (doxycycline-induced shRNA knockdown); treatment time: 72 h
Out of some 3,200 compounds screened, about 300 (9.4%) showed activity. The sample as a whole holds a higher share of actives than the screen did.
Answer each item with its documented cell viability (log2).
Numbers only.

Consider the following illustrative entries.
CC1(C)C[C@H](O)[C@]23CC[C@@H](O)[C@@](C)(CC[C@@H]12)C3: 0.054
CC(=O)O[C@@H]1C[C@H]2C(C)(C)C(=O)[C@@H]3O[C@@H]3[C@]2(C)[C@H]2CC[C@@]3(C)[C@H](c4ccoc4)OC(=O)[C@H]4O[C@]43[C@@]21C: 0.0669
CC(C)CCCC(C)C1CCC2C3CC=C4CC(=O)CCC4(C)C3CCC12C (stereo not drawn): 0.0967
CC(C)c1c(C(=O)Nc2ccccc2)c(-c2ccccc2)c(-c2ccc(F)cc2)n1CC[C@@H](O)C[C@@H](O)CC(=O)O: 0.0242
CC1=C(C(=O)Nc2ccccc2Cl)C(c2ccc(F)cc2)NC(=S)N1 (stereo not drawn): -0.00334
COC(=O)[C@H](O)[C@H]1C(C)(C)[C@H](O)[C@@H]2CC3=C4CC(=O)O[C@@H](c5ccco5)[C@]4(C)CC[C@@H]3[C@@]1(C)C2=O: 0.0423
C=C1CC[C@@H]2[C@H](CC2(C)C)C(=O)CC[C@@H]1O: 0.00133

Prompt line: What value of measured cell viability (log2) is listed for `O=C(Nc1c(-c2ccccc2)nc2ccc(Cl)cn12)c1ccc(F)cc1` ?
Response line: 0.0794

###

tested on: A673/TR/shEF; assay: cell viability (LOESS-normalised, relative to median of negative controls) (log2 ratio); higher = more viable cells (less compound effect), active = hit call of the paper (over 3 MAD below the median); settings: 2.5 µM; library screen: screen2; EWS-FLI1 expression: high (no doxycycline); treatment time: 72 h
Screen size: about 3,200 compounds; about 300 (9.4%) showed activity. The entries come from a sample that favours actives as a whole.
Answer each item with its documented cell viability (log2).
Give bare numbers.

Consider the following illustrative entries.
CC[C@]1(O)C[C@H]2CN(CCc3c([nH]c4ccccc34)[C@@](C(=O)OC)(c3cc4c(cc3OC)N(C=O)[C@H]3[C@@](O)(C(=O)OC)[C@H](OC(C)=O)[C@]5(CC)C=CCN6CC[C@]43[C@@H]65)C2)C1: -2.88
C[N+](C)(C)CCC(=O)c1cccc2ccccc12: -0.524
CCCN(CCC)C(=O)C(CCC(=O)O)NC(=O)c1ccccc1 (stereo not given): 0.121
Cc1ccccc1N1CCN(S(=O)(=O)C[C@]23CCC(CC2NC(=O)[C@@H](N)CCS(C)(=O)=O)C3(C)C)CC1 (stereo not given in full): 0.18
Nc1nc(Nc2ccccc2)nc2c1ncn2C1O[C@H](CO)[C@@H](O)[C@H]1O (stereo not given in full): 0.213

Return reported cell viability (log2) values for all items listed beneath this line.
1. NC[C@H](O)c1ccc(O)c(O)c1
2. O=C1Cc2c([nH]c3ccc(Br)cc23)-c2ccccc2N1

Response line:
1: 0.0755; 2: 0.128

Return reported cell viability (log2) values for all items listed beneath this line.
1. NS(O)(O)Cc1noc2ccccc12
2. O=C1Cc2c([nH]c3ccc([N+](=O)[O-])cc23)-c2ccccc2N1
3. NCC(O)c1ccc(O)c(O)c1 (stereo not given)

Response line:
1: 0.183; 2: -0.122; 3: 0.0351

###

tested on: A673/TR/shEF; experiment: cell viability (LOESS-normalised, relative to median of negative controls) (log2 ratio); higher = more viable cells (less compound effect), active = hit call of the paper (over 3 MAD below the median); settings: 0.103 µM; library screen: screen3; EWS-FLI1 expression: low (doxycycline-induced shRNA knockdown); treatment time: 72 h
The campaign covered roughly 3,200 compounds. About 300 (9.4%) showed activity. The sample as a whole holds a higher share of actives than the screen did.
Output constraint: value belongs to true = active, false = inactive

COc1cccc2c1C(=O)c1c(O)c3c(c(O)c1C2=O)C[C@@](O)(C(=O)CO)C[C@@H]3O[C@H]1C[C@H](N)[C@@H](O)[C@H](C)O1: true
C[C@H](Cn1cnc2c(N)ncnc21)OCP(=O)(O)O: false
O=c1c(-c2ccc(O)cc2)coc2cc(O)ccc12: false
COc1cc([C@@H]2c3cc4c(cc3[C@@H](O[C@@H]3O[C@@H]5CO[C@@H](C)O[C@H]5[C@H](O)[C@H]3O)[C@H]3COC(=O)[C@H]23)OCO4)cc(OC)c1O: false
O=c1[nH]c(=O)n([C@H]2C[C@H](O)[C@@H](CO)O2)cc1C(F)(F)F: false
CCN(CC)CCNC(=O)c1c(C)[nH]c(/C=C2\C(=O)Nc3ccc(F)cc32)c1C: false
CC1CC2C3CCC4=CC(=O)C=CC4(C)C3C(=O)CC2(C)[C@@]1(O)C(=O)CO (stereo partly specified): false
CC(C)(C)C(=O)OCOP(=O)(COCCn1cnc2c(N)ncnc21)OCOC(=O)C(C)(C)C: false
COc1cccc2c1C(=O)c1c(O)c3c(c(O)c1C2=O)C[C@@](O)(C(=O)CO)C[C@@H]3O[C@H]1C[C@H](N)[C@H](O)[C@H](C)O1: false

Prompt line: # fetch the recorded call for `CCCCCOC(=O)Nc1nc(=O)n([C@@H]2O[C@H](C)[C@@H](O)[C@H]2O)cc1F` here
Response line: false
